# target.under.test: T1, cynomolgus monkey CD38 (cynomolgus monkey, UniProt Q5VAN0 44-301, limits assumed)
# T1 construct: also called Cyno CD38; cynoCD38
# assay.info: FACS
quantity.name: EC50

Any idea what its EC50 is? The binder is AntiCD38_hhy_1195 (antibody, V domains shown) VH: QVQLVESGGGVVQPGRSLRLSCAASGFTFSSYGMYWVRQAPGKGLEWVAVIWYDGSNKYYADSVKGRFTISRDNSKNTLYLQMNSLRAEDTAVYHCARDPGLRYFDGGMDVWGQGTTVTVSS VL: DIQLTQSPSFLSASVGDRVTITCRASQGISSYLAWYQQKPGKAPKLLIFAASTLHSGVPSRFSGSGSGTEFTLTISSLQPEDFATYYCQQLNSFPYTFGQGTKLEIK
15 nM
